Recorded thermal shift delta Tm for the following compounds
- Test system: LOC_OS01G01410-cb001
- procedure-details: thermal shift delta Tm vs DMSO control; higher = stronger stabilization (binding);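 also: purified Escherichia coli-expressed rice kinase domain construct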
- condition-set: 12.5 µM; protein concentration 2 µM
parameter-measured: thermal shift delta Tm (°C)

> print(dat)
                                   compound      parameter.measured  readout.number
1  CC[C@H](CO)Nc1nc(NCc2ccccc2)c2ncn(C(C)C)c2n1 [Roscovitine (Seliciclib,CYC202)]  thermal shift delta Tm             1.5
2  CC(C)(C)c1cnc(CSc2cnc(NC(=O)C3CCNCC3)s2)o1  thermal shift delta Tm            1.11
3  C=CC(=O)Nc1cccc(Nc2nc(Nc3ccc(Oc4ccnc(C(=O)NC)c4)cc3)ncc2F)c1  thermal shift delta Tm            4.52
4  O=C(NCCCNc1nc(Nc2cccc(NC(=O)N3CCCC3)c2)ncc1I)c1cccs1  thermal shift delta Tm            4.61
5  COc1ccc(S(=O)(=O)N(C(C)=O)c2ccccc2/C=C/c2cc[n+]([O-])cc2)cc1  thermal shift delta Tm            -0.1

* * *

- System: LOC_OS07G06570-cb004
- procedure-details: thermal shift delta Tm vs DMSO control; higher = stronger stabilization (binding)
- condition-set: 12.5 µM; protein concentration 2 µM

molecule	units-text	thermal shift delta Tm
COc1ccc(Oc2cc(NCCC(F)(F)F)c3ncc(-c4ccc(C(=O)NC5CC5)c(C)c4)n3n2)c(F)c1F	°C	-0.39
C[C@@H]1COCCN1c1cc(=O)n2c(n1)N(Cc1cncc(Cl)c1)[C@H](C(F)(F)F)CC2	°C	1.02
CCS(=O)(=O)c1cccc(-c2cc(C(=O)NC3CCN(C)CC3)c(C)c3[nH]c4ncc(C)cc4c23)c1	°C	0.61
NC(=O)c1ccc(N(C(N)=O)c2c(F)cccc2F)nc1-c1ccc(F)cc1F	°C	1.05
CNC(=O)c1ccccc1Sc1ccc2c(/C=C/c3ccccn3)n[nH]c2c1	°C	1.05
C[C@H](Nc1ncnc2[nH]cnc12)c1cc2ccc(F)cc2nc1-c1ccccn1	°C	0.76
CC1(C)C=Cc2c(ccc3c2OC[C@@H](c2ccc(O)cc2O)C3)O1	°C	0.51
Cc1csc(-c2nnc(Nc3ccc(Oc4ncccc4-c4ccnc(N)n4)cc3)c3ccccc23)c1	°C	0.09
N#CCNC(=O)c1ccc(-c2ccnc(Nc3ccc(N4CCOCC4)cc3)n2)cc1	°C	0.77
Cn1cnc(N)c2ncnc1-2	°C	0.43
CCCCCCCCCCCCCCCCn1cc[n+](Cc2ccccc2)c1C	°C	-1.18
COc1cc(N2CCC(N)CC2)ccc1Nc1ncc(Cl)c(-c2c[nH]c3ccccc23)n1	°C	2.26
CO[C@H]1C[C@@H]2CC[C@@H](C)[C@@](O)(O2)C(=O)C(=O)N2CCCC[C@H]2C(=O)O[C@H]([C@H](C)C[C@@H]2CC[C@@H](OC(=O)C(C)(CO)CO)[C@H](OC)C2)CC(=O)[C@H](C)/C=C(\C)[C@@H](O)[C@@H](OC)C(=O)[C@H](C)C[C@H](C)/C=C/C=C/C=C/1C	°C	0.91
Cc1ccc(C(=O)Nc2ccc(CN3CCN(C)CC3)c(C(F)(F)F)c2)cc1C#Cc1cnc2[nH]ncc2c1 [GZD824 Dimesylate]	°C	0.65
CSc1cccc(Nc2ncc3cc(-c4c(Cl)cccc4Cl)c(=O)n(C)c3n2)c1	°C	0.45
C=CC(=O)N1CC[C@@H](Oc2nc(Nc3ccc(N4CCC(N5CCN(C)CC5)CC4)cc3)c(C(N)=O)nc2CC)C1	°C	1.6

* * *

Recorded thermal shift delta Tm for the following molecules
- Test system: LOC_OS01G51400-cb002
- procedure-details: thermal shift delta Tm vs DMSO control; higher = stronger stabilization (binding)
- condition-set: 12.5 µM; protein concentration 2 µM

molecule	thermal shift delta Tm / °C
CN1CCN(c2ccc3nc(-c4c(N)c5c(F)cccc5[nH]c4=O)[nH]c3c2)CC1 [Dovitinib (TKI-258, CHIR-258)]	0.56
Cc1cccc(Nc2nc(NC3CCCCC3N)ncc2C(N)=O)c1 (stereo not given)	0.29
O=C(O)c1ccc(Nc2ncc3c(n2)-c2ccc(Cl)cc2C(c2c(F)cccc2F)=NC3)cc1	-0.16
CCN(CC)CCNC(=O)c1c(C)[nH]c(/C=C2\C(=O)Nc3ccc(-c4csc(-c5ccccc5)n4)cc32)c1C	0.02
COc1cc(Nc2ncc(F)c(Nc3ccc4c(n3)NC(=O)C(C)(C)O4)n2)cc(OC)c1OC [R406 (free base)]	0.55
Oc1cc(CNC(=S)/C=C/c2cc(O)c(O)c(Br)c2)cc(O)c1O	1.58
CO[C@H]1C[C@@H]2CC[C@@H](C)[C@@](O)(O2)C(=O)C(=O)N2CCCC[C@H]2C(=O)O[C@H]([C@H](C)C[C@@H]2CC[C@@H](OP(C)(C)=O)[C@H](OC)C2)CC(=O)[C@H](C)/C=C(\C)[C@@H](O)[C@@H](OC)C(=O)[C@H](C)C[C@H](C)/C=C/C=C/C=C/1C	-0.09
C=CC(=O)Nc1ccc2ncnc(Nc3ccc(OCc4cccc(F)c4)c(Cl)c3)c2c1	0.29
Cc1ncc(CCCN(C)C)cc1Nc1ncc2c(n1)-c1ccc(C(F)(F)F)cc1NC(=S)C2	0.38
Cc1c(NC(=O)OC[C@@H]2COCCN2)cn2ncnc(Nc3ccc4c(cnn4Cc4cccc(F)c4)c3)c12	0.14
CNS(=O)(=O)C[C@H]1CC[C@H](N(C)c2[nH]cnc3nccc2-3)CC1	0.26
Cc1ccc(S(=O)(=O)/C=C/C#N)cc1	0.21
COc1cc(N2CCN(C)CC2)ccc1Nc1ncc2c(n1)N(C)c1ccccc1C(=O)N2	0.22
Oc1cccc(-c2nc(N3CCOCC3)c3oc4ncccc4c3n2)c1	0.21
Cc1ccc2nc(NCCN)c3ncc(C)n3c2c1	0.09
C[C@H]1[C@H](C)CC[C@]2(C(=O)O)CC[C@]3(C)C(=CC[C@@H]4[C@@]5(C)C[C@@H](O)[C@H](O)[C@@](C)(CO)[C@@H]5CC[C@]43C)[C@H]12	0.17
CC(=O)Nc1cccc(-n2c(=O)n(C3CC3)c(=O)c3c(Nc4ccc(I)cc4F)n(C)c(=O)c(C)c32)c1	0
Cn1cc(-c2ccc3ncc(Cc4ccc5ncccc5c4)n3n2)cn1	0.47
Cc1[nH]nc2ccc(-c3cncc(OC[C@@H](N)Cc4ccccc4)c3)cc12	0.06
CC(=O)c1c(C)c2cnc(Nc3ccc(N4CCNCC4)cn3)nc2n(C2CCCC2)c1=O	0
COc1ccc(COc2cc3oc(=O)c4cc(C(C)O)ccc4c3cc2OC)cc1 (stereo not given)	0
Cc1ccc(NC(=O)c2cccc(C(C)(C)C#N)c2)cc1Nc1ccc2ncn(C)c(=O)c2c1	0.61
NC(=O)c1ccc(N(C(N)=O)c2c(F)cccc2F)nc1-c1ccc(F)cc1F	0.14
CNC(=O)c1cccc(-c2ccc3c(N4CCOC[C@@H]4C)nc(N4CCOC[C@@H]4C)nc3n2)c1	0.26
CCn1c(=O)c(-c2cc[nH]n2)cc2c(C)nc(N)nc21	-0.16
CC(C)=CC[C@@H](O)C1=CC(=O)c2c(O)ccc(O)c2C1=O	18.6
C#Cc1cccc(Nc2ncnc3cc(OC)c(OCCCCCCC(=O)NO)cc23)c1	0.13
C=CC(=O)Nc1cccc(Nc2nc(Nc3ccc(OCCOC)cc3)ncc2F)c1	0.59
CCCCCCCCCCCCCCCCOP(=O)([O-])OCC[N+](C)(C)C	-3.78
CCn1c(=O)c(-c2ccc(Cl)cc2Cl)cc2cnc(Nc3ccc(N4CCNCC4)c(F)c3)nc21	-0.48
Nc1[nH]nc2nnc(-c3c(-c4ccccc4)nn4ccccc34)cc12	0.19
CN1CCN(c2ccc(Nc3cc(-c4cccc(-n5ccc6cc(C7CC7)cc(F)c6c5=O)c4CO)cn(C)c3=O)nc2)CC1	0.38
Cn1c2ccccc2c2c3c(c4c5ccccc5n(CCC#N)c4c21)CNC3=O	0.8
C=C(C)[C@@H]1CC[C@]2(C)CC[C@]3(C)[C@H](CC[C@@H]4[C@@]5(C)CC[C@H](O)C(C)(C)[C@@H]5CC[C@]43C)[C@@H]12	-0.11
CCc1cccc(CC)c1NC(=O)N1Cc2[nH]nc(NC(=O)c3ccc(N4CCN(C)CC4)cc3)c2C1	0

* * *

- System: LOC_OS04G35114-cb001
- procedure-details: thermal shift delta Tm vs DMSO control; higher = stronger stabilization (binding)
- condition-set: 12.5 µM; protein concentration 2 µM
// rule not met strictly below 1 °C in thermal shift delta Tm; rule met otherwise

> print(dat)
                                   molecule         tested.target  class.assignment
1  CC(C)(C)c1cc(/C=C(\C#N)C(N)=S)cc(C(C)(C)C)c1O  LOC_OS04G35114-cb001          rule met
2  CCS(=O)(=O)N1CC(CC#N)(n2cc(-c3ncnc4[nH]ccc34)cn2)C1  LOC_OS04G35114-cb001          rule met
3  O=C1c2c(O)cc(O)cc2OC(c2ccc(O)c(O)c2)C1O (stereo not drawn) [Taxifolin (Dihydroquercetin)]  LOC_OS04G35114-cb001      rule not met
4  Cc1cccc(Nc2nc(NC3CCCCC3N)ncc2C(N)=O)c1 (stereo not drawn)  LOC_OS04G35114-cb001      rule not met
5  Cc1nc(-c2cn3c(n2)-c2ccc(-c4cnn(C(C)(C)C(N)=O)c4)cc2OCC3)n(C(C)C)n1  LOC_OS04G35114-cb001      rule not met
6  O=C1NC(=O)C(=Cc2ccc(-c3ccc(F)cc3)o2)S1 (stereo in doubt)  LOC_OS04G35114-cb001          rule met
7  Cc1c[nH]c2nc(Nc3ccc(N4CCN(C)CC4)c(F)c3)nc(-c3cccc(CC#N)c3)c12  LOC_OS04G35114-cb001          rule met
8  COc1cc2c(N3CCN(C(=O)Nc4ccc(OC(C)C)cc4)CC3)ncnc2cc1OCCCN1CCCCC1  LOC_OS04G35114-cb001          rule met
